Data origin: patent US20120277143A1

- SUBJECT OF TEST: T1, human IL4 (human, UniProt P05112 25-153, biotinylated in the SPR and competition assays (sites not given))
- T1 construct: Peprotech #200-04, mature protein produced in E. coli; also called hIL4; Interleukin 4
- T1 sequence: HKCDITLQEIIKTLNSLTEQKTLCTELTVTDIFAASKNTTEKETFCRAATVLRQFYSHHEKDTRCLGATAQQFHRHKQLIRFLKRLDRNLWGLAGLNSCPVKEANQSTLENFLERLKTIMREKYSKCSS
- TEST: IL4R binding inhibition; repeats Table 17
pIC50: −log10 of the molar value.
READOUT: pIC50

{"BINDER": "C01_6G9_V1_C06_28E5_V1 (designed binder, bispecific IL13/IL4 ankyrin repeat protein with (GGGGS)4 linker; also called bispecific AR protein) DLDKKLLEAARAGQDDEVRILMANGADVNARDSYGSTPLHLAAREGHLEIVEVLLKYGADVNAADFIGDTPLHLAAYRGHLEIVEVLLKYGADVNASDITGETPLHLAAQIGHLEIVEVLLKHGADVNAQDKFGKTAFDISIDNGNEDLAEILQKLGGGGSGGGGSGGGGSGGGGSRSDLGKKLLEAARAGQDDEVRILMANGADVNAADDSGITPLHLAAEDGHLEIVEVLLKAGADVNAQDNLGDTPLHLAAWTGHLEIVEVLLKAGADVNAYDISGITPLHLAAFYGHLEIVEVLLKHGADVNAQDKFGKTAFDISIDNGNEDLAEILQKLN", "READING": 10.62}
